Entry source: PubChem BioAssay AID1159580

Below: a set of entries, each annotated with reported normalized growth.
Assay: chemical genetic growth profiling, strain panel (AID 1159580);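 further: tested at 20 µM; growth read once vehicle control cultures reached saturation at 30 °C; 1 = growth at the plate median or of vehicle wells; lower values mean less growth of the strain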
Conditions: S. cerevisiae deletion strains, growth OD, locus YLR027C, strain aat2, hits give low values
Among all 5,500 compounds or so, about 2,000 (36%) were called active. Another 18% or so got no clear call; they are omitted. The list shows a part of the results.
Write no unit; give the number alone.

compound | assay_value
c1ccc2nc(N3CCNCC3)ccc2c1 | 1
COc1cc(S(C)=O)ccc1-c1nc2ncccc2[nH]1 (stereo unspecified) | 0.98
CSc1ccc2c(c1)N(CCC1CCCCN1C)c1ccccc1S2 (stereo unspecified) | 0.946
CCCC(CCC)C(=O)O | 1
COc1c2ccoc2nc2c(OC)c(OCC(O)C(C)(C)O)ccc12 (stereo unspecified) | 1.03
COc1c2ccccc2nc2occc12 | 0.946

Request: Return normalized growth for the following compound: CCCCS(=N)(=O)CCC(N)C(=O)O (stereo unspecified)
Response: 0.993

Request: Return normalized growth for the following compound: CC(CCC(=O)O)[C@H]1CCC2C3CC[C@@H]4C[C@H](O)CC[C@]4(C)C3C[C@H](O)[C@@]21C (stereo partly specified)
Response: 0.991

Request: Return normalized growth for the following compound: "COc1cc([C@H]2Oc3cc([C@H]4Oc5cc(O)cc(O)c5C(=O)[C@@H]4O)ccc3O[C@@H]2CO)ccc1O"
Response: 1.02
